- Tested system: T1, human PCSK9 (human, UniProt Q8NBP7 31-692, limits assumed)
- T1 construct: also called hPCSK9; huPCSK9
- T1 sequence (Q8NBP7 31-692 limits assumed): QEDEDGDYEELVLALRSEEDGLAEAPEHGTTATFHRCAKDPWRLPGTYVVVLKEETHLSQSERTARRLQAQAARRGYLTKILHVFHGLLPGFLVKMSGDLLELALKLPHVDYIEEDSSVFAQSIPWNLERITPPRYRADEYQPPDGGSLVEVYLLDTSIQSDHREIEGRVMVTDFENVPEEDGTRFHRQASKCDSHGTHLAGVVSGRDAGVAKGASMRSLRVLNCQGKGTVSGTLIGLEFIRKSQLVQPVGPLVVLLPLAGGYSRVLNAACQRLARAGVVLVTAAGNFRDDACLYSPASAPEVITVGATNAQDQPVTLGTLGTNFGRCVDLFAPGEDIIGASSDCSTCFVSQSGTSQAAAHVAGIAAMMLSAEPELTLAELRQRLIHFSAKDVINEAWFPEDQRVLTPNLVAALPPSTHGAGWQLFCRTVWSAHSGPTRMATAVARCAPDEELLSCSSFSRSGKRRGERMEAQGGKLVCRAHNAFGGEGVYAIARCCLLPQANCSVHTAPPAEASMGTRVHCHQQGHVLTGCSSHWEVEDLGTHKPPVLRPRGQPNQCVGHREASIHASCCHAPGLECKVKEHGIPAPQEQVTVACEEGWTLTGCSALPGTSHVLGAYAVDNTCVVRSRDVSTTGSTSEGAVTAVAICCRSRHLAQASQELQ
- Protocol text: SPR Biacore 3000, captured IgG, hPCSK9 injected, pH 5.5
Reported endpoint: koff (s⁻¹)
Answer in s⁻¹, number only, no unit symbol.

Please review the following examples before continuing.
{"Binder": "6L1721 (antibody, V domains shown, L1L3-based mutant; Tested as full-length IgG) VH: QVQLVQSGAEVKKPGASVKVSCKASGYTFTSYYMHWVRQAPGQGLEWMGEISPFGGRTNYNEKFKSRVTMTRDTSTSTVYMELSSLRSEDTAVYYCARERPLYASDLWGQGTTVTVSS VL: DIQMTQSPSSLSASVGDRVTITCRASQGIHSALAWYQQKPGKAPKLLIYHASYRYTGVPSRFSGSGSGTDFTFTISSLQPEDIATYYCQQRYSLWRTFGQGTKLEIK", "Readout unit": "s⁻¹", "koff": 0.00084}
{"Binder": "5L1724H23 (antibody, V domains shown, Triple histidine mutant of h5A10; Only CDRs printed; Full-length IgG) VH: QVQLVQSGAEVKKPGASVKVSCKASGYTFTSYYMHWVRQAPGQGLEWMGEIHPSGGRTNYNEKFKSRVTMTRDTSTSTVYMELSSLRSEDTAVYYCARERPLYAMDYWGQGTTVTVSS VL: DIQMTQSPSSLSASVGDRVTITCKASQDVHTAVAWYQQKPGKAPKLLIYSASHRYTGVPSRFSGSGSGTDFTFTISSLQPEDIATYYCQQRYSTPRTFGQGTKLEIK", "Readout unit": "s⁻¹", "koff": 0.00793}
{"Binder": "5L1721H23_6H3 (antibody, V domains shown, Only CDRs printed; Full-length IgG) VH: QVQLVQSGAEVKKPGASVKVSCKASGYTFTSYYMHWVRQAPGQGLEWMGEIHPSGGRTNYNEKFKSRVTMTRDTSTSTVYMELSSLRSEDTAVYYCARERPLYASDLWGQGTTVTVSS VL: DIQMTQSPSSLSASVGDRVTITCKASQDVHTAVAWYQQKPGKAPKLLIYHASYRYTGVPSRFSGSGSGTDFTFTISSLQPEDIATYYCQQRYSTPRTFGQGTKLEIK", "Readout unit": "s⁻¹", "koff": 0.00772}
{"Binder": "6L21H2335 (antibody, V domains shown) VH: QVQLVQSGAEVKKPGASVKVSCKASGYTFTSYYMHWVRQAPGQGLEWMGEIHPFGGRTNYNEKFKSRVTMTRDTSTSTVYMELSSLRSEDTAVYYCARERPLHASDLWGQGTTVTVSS VL: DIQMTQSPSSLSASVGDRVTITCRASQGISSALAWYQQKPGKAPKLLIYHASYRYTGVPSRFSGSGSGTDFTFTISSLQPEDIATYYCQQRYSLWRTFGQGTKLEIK", "Readout unit": "s⁻¹", "koff": 0.238}
{"Binder": "5L1721H23 (antibody, V domains shown, Triple histidine mutant of h5A10; Only CDRs printed; Full-length IgG) VH: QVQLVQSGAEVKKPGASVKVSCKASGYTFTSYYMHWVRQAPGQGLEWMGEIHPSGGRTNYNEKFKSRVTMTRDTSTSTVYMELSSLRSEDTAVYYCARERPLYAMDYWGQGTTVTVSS VL: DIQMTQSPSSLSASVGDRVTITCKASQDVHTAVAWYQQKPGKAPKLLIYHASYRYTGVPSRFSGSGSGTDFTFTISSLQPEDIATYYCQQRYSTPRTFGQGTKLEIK", "Readout unit": "s⁻¹", "koff": 0.0179}

[in] Quickly give me recorded koff for 5L1724H23_6L3H3 (antibody, V domains shown, Only CDRs printed; Full-length IgG) VH: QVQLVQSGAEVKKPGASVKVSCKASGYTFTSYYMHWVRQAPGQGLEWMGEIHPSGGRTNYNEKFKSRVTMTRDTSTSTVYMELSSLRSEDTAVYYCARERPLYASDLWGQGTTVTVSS VL: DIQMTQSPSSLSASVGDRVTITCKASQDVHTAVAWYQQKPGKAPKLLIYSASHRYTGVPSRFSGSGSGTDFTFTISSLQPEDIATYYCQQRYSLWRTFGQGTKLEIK
[out] 0.00789
